- target: Type I 5α-Reductase from Human Scalp (Homo sapiens, UniProt P18405)
- Construct: Scalp punch biopsies from graft recipient sites were obtained from human hair transplant procedures; from tissue; host or cells: human scalp punch biopsies (hair transplant graft recipient sites), homogenate, 100,000×g pellet
- Sequence (P18405 1-259): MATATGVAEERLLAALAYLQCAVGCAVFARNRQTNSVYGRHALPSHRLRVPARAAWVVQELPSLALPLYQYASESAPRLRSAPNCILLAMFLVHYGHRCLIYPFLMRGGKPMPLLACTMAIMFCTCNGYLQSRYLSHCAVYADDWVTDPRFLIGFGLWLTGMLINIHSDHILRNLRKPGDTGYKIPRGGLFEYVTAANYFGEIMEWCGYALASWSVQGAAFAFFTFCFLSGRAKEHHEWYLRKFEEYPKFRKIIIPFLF
- experiment.notes: Human Type I 5α-reductase assay (conversion of [3H]-testosterone to 5α-reduced metabolites)
- Format: biochemical
- conditions: pH 7.5, 0.3 μM; 50 nM [3H]-testosterone, pH 7.5, 25°, 180 min; compared to control reaction mixtures; read-out: percent inhibition of Type I AR
Item-by-item account of inhibition at 0.3 µM
measured.property: inhibition at 0.3 µM (%)

>>> readout_value("CN1C(=O)CC[C@]2(C)c3ccc(-c4nc5ccccc5s4)cc3CC[C@@H]12")
89
>>> readout_value("CN1C(=O)CC[C@]2(C)c3ccc(-c4cnccn4)cc3CC[C@@H]12")
5
>>> readout_value("CN1C(=O)CC[C@]2(C)c3ccc(-c4ccc(Cl)c(F)c4)cc3CC[C@@H]12")
91
>>> readout_value("C[C@]12CCC(=O)N[C@@H]1CCc1cc(Sc3ccccn3)ccc12")
27
>>> readout_value("COc1cccc(Sc2ccc3c(c2)CC[C@H]2NC(=O)CC[C@]32C)c1")
23
>>> readout_value("CN1C(=O)CC[C@]2(C)c3ccc(C(=O)c4ccccc4)cc3CC[C@@H]12")
53
>>> readout_value("CN1C(=O)CC[C@]2(C)c3ccc(Sc4ccccc4F)cc3CC[C@@H]12")
100
>>> readout_value("CN1C(=O)CC[C@]2(C)c3ccc(Sc4nc(-c5ccccc5)nc5ccccc45)cc3CC[C@@H]12")
55

====

- target: Type II 5α-Reductase from Human Prostate (Homo sapiens)
- Construct: The same procedure as above was used for preparations using tissue from prostate surgery; from tissue; host or cells: human prostate tissue from surgery, homogenate, 100,000×g pellet
- experiment.notes: Human Type II 5α-reductase assay (conversion of [3H]-testosterone to 5α-reduced metabolites)
- Type: biochemical
- conditions: pH 5.5, read-out: percent inhibition of Type II AR
measured.property: inhibition at 0.3 µM (%)

>>> readout_value("CN1C(=O)CC[C@]2(C)c3ccc(/C=C\\c4ccccc4)cc3CC[C@@H]12")
36
>>> readout_value("CN1C(=O)CC[C@]2(C)c3ccc(-c4ccc(F)cc4C(F)(F)F)cc3CC[C@@H]12")
22
>>> readout_value("CN1C(=O)CC[C@]2(C)c3ccc(C#Cc4ccccc4)cc3CC[C@@H]12")
63

====

- target: Type I 5α-Reductase from Human Scalp (Homo sapiens)
- Construct: Scalp punch biopsies from graft recipient sites were obtained from human hair transplant procedures; from tissue; host or cells: human scalp punch biopsies (hair transplant graft recipient sites), homogenate, 100,000×g pellet
- Sequence (P18405 1-259): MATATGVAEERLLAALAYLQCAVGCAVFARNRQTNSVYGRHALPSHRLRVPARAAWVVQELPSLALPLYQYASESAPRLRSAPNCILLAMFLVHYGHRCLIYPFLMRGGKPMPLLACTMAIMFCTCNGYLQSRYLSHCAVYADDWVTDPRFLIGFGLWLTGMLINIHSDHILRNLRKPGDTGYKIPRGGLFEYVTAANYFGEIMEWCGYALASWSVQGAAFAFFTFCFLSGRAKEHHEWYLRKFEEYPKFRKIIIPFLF
- experiment.notes: Human Type I 5α-reductase assay (conversion of [3H]-testosterone to 5α-reduced metabolites)
- Type: biochemical
- conditions: pH 7.5, 0.3 μM; 50 nM [3H]-testosterone, pH 7.5, 25°, 180 min; compared to control reaction mixtures; read-out: percent inhibition of Type I AR
Item-by-item account of inhibition at 0.3 µM
measured.property: inhibition at 0.3 µM (%)

>>> readout_value("CN1C(=O)CC[C@]2(C)c3ccc(Sc4nc5c(Cl)cccc5s4)cc3CC[C@@H]12")
85
>>> readout_value("CN1C(=O)CC[C@]2(C)c3ccc(-c4cccc(-c5ccccc5)c4)cc3CC[C@@H]12")
68
>>> readout_value("CN1C(=O)CC[C@]2(C)c3ccc(Sc4nc5c(Br)cccc5s4)cc3CC[C@@H]12")
89
>>> readout_value("CN1C(=O)CC[C@]2(C)c3ccc(C(=O)Oc4ccccc4)cc3CC[C@@H]12")
85
>>> readout_value("CN1C(=O)CC[C@]2(C)c3ccc(-c4cccc(C(=O)NC(C)(C)C)c4)cc3CC[C@@H]12")
13
>>> readout_value("CCN(CC)C(=O)c1ccccc1-c1ccc2c(c1)CC[C@H]1N(C)C(=O)CC[C@]21C")
16
>>> readout_value("CN1C(=O)CC[C@]2(C)c3ccc(-c4ccc(-c5ccccc5)cc4)cc3CC[C@@H]12")
88
>>> readout_value("CN1C(=O)CC[C@]2(C)c3ccc(Sc4ncccc4[N+](=O)[O-])cc3CC[C@@H]12")
62

====

Item-by-item account of inhibition at 0.3 µM
- target: Type II 5α-Reductase from Human Prostate (Homo sapiens, UniProt P31213)
- Construct: The same procedure as above was used for preparations using tissue from prostate surgery; from tissue; host or cells: human prostate tissue from surgery, homogenate, 100,000×g pellet
- Sequence (P31213 whole entry): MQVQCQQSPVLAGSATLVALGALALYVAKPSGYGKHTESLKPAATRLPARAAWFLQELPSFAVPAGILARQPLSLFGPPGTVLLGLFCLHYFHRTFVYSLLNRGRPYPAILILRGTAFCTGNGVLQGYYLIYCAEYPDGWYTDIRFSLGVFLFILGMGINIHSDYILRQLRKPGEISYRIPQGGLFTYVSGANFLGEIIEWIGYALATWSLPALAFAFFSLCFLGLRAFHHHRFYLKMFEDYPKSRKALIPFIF
- experiment.notes: Human Type II 5α-reductase assay (conversion of [3H]-testosterone to 5α-reduced metabolites)
- Assay type: biochemical
- conditions: pH 5.5, 0.3 μM; sodium acetate pH 5.5, 25°, 30 min; compared to control reaction mixtures; read-out: percent inhibition of Type II AR
measured.property: inhibition at 0.3 µM (%)

>>> readout_value("CN1C(=O)CC[C@]2(C)c3ccc(-c4cccc(C=O)c4)cc3CC[C@@H]12")
20
>>> readout_value("COc1ccccc1Sc1ccc2c(c1)CC[C@H]1N(C)C(=O)CC[C@]21C")
41
>>> readout_value("CN1C(=O)CC[C@]2(C)c3ccc(Sc4ccc5cc(F)ccc5n4)cc3CC[C@@H]12")
78
>>> readout_value("C[C@]12CCC(=O)N[C@@H]1CCc1cc(Sc3ccccc3)ccc12")
19
>>> readout_value("CN1C(=O)CC[C@]2(C)c3ccc(-c4cnc5ccccc5n4)cc3CC[C@@H]12")
37
>>> readout_value("CN1C(=O)CC[C@]2(C)c3ccc(-c4cccc(Cl)c4Cl)cc3CC[C@@H]12")
16
>>> readout_value("C[C@]12CCC(=O)N[C@@H]1CCc1cc(Sc3cnc4ccccc4c3)ccc12")
15
>>> readout_value("CN1C(=O)CC[C@]2(C)c3ccc(-c4cc(F)cc(C(F)(F)F)c4)cc3CC[C@@H]12")
24
>>> readout_value("CN1C(=O)CC[C@]2(C)c3ccc(-c4ccc(Cl)c(F)c4)cc3CC[C@@H]12")
30
>>> readout_value("CN1C(=O)CC[C@]2(C)c3ccc(C(=O)NCc4ccccc4)cc3CC[C@@H]12")
32
>>> readout_value("CN1C(=O)CC[C@]2(C)c3ccc(Sc4nc5c(C(C)(C)C)ccc(C(C)(C)C)c5s4)cc3CC[C@@H]12")
19
>>> readout_value("CN1C(=O)CC[C@]2(C)c3ccc(Sc4ccc([N+](=O)[O-])cn4)cc3CC[C@@H]12")
49
>>> readout_value("CN1C(=O)CC[C@]2(C)c3ccc(-c4ccc5c(c4)CCC5O)cc3CC[C@@H]12 (single isomer, unassigned; (+))")
44
>>> readout_value("CN1C(=O)CC[C@]2(C)c3ccc(C(=O)OC(c4ccccc4)c4ccccc4)cc3CC[C@@H]12")
83
>>> readout_value("COc1ccc(-c2c(-c3ccccc3)c(Sc3ccc4c(c3)CC[C@H]3N(C)C(=O)CC[C@]43C)nc3ccccc23)cc1")
28
>>> readout_value("CN1C(=O)CC[C@]2(C)c3ccc(Cc4ccccc4)cc3CC[C@@H]12")
37
>>> readout_value("COc1cccc(-c2ccc3c(c2)CC[C@H]2N(C)C(=O)CC[C@]32C)c1")
12
>>> readout_value("CN1C(=O)CC[C@]2(C)c3ccc(-c4nc5c(ccc6ccccc65)s4)cc3CC[C@@H]12")
40
>>> readout_value("CN1C(=O)CC[C@]2(C)c3ccc(-c4ccncc4)cc3CC[C@@H]12")
12
>>> readout_value("COc1ccc(Sc2ccc3c(c2)CC[C@H]2N(C)C(=O)CC[C@]32C)cc1")
33
>>> readout_value("CN1C(=O)CC[C@]2(C)c3ccc(-c4nc5cc(Cl)c(Cl)cc5s4)cc3CC[C@@H]12")
47
>>> readout_value("CN1C(=O)CC[C@]2(C)c3ccc(-c4cccc(-c5ccccc5)c4)cc3CC[C@@H]12")
11
>>> readout_value("C[C@]12CCC(=O)N[C@@H]1CCc1cc(Sc3ccccn3)ccc12")
42
>>> readout_value("CN1C(=O)CC[C@]2(C)c3ccc(-c4ccc5ncccc5c4)cc3CC[C@@H]12")
32
>>> readout_value("C[C@]12CCC(=O)N[C@@H]1CCc1cc(-c3cccc([N+](=O)[O-])c3)ccc12")
9
>>> readout_value("CC(C)C(=O)c1ccc(-c2ccc3c(c2)CC[C@H]2N(C)C(=O)CC[C@]32C)cc1")
36
>>> readout_value("CN1C(=O)CC[C@]2(C)c3ccc(C(=O)c4ccccc4)cc3CC[C@@H]12")
38
>>> readout_value("CN1C(=O)CC[C@]2(C)c3ccc(CCc4ccc5ccccc5c4)cc3CC[C@@H]12")
33
>>> readout_value("CN1C(=O)CC[C@]2(C)c3ccc(Sc4nsc5ccccc45)cc3CC[C@@H]12")
30
>>> readout_value("CN1C(=O)CC[C@]2(C)c3ccc(Sc4nc5ccccc5o4)cc3CC[C@@H]12")
69
>>> readout_value("CN1C(=O)CC[C@]2(C)c3ccc(Sc4cnccn4)cc3CC[C@@H]12")
10
>>> readout_value("CN1C(=O)CC[C@]2(C)c3ccc(Sc4nc5cc(Cl)c(Cl)cc5s4)cc3CC[C@@H]12")
74
